- Study System: Pig IR (pig, UniProt F1SCL0 28-1382)
- Protocol Description: cell-based or functional assay

{"Binder": "scl-Fc fusion protein INS015 (Fc fusion) SFVNQHLCGSHLVEALHLVCGERGFHYTPKTEEYPGDVGIVEQCCTSICSLSQLENYCGGEAEDLQVGQVELGGGPGAGSLQPEGSLQGGPSVFLFPPKPKDTLMISRTPEVTCVVVDVSHEDPEVKFNWYVDGVEVHNAKTKPREEQYNSTYRVVSVLTVLHQDWLNGKEYKCKVSNKALPAPIEKTISKAKGQPREPQVYTLPPSRDELTKNQVSLTCLVKGFYPSDIAVEWESNGQPENNYKTTPPVLDSDGSFFLYSKLTVDKSRWQQGNVFSCSVMHEALHNHYTQKSLSLSPGGGGGSAESKYGPPCPPCPA", "Pig IR phosphorylation [EC 50 nM] mean / nM": 33.5}
